System: U-2932
Assay: growth inhibition by drug alone (1 - RLU/untreated control) (fraction); higher = stronger inhibition
Settings: 10 nM; time (day): 5; 177Lu-lilotomab satetraxetan 0 ug/ml
Where a name gives a salt, the structure may show the parent alone.
PROPERTY_LABEL: growth inhibition by drug alone

>  <COMPOUND>
CC(C)(C)c1cc(NC(=O)Nc2ccc(-c3cn4c(n3)sc3cc(OCCN5CCOCC5)ccc34)cc2)no1

>  <PROPERTY_LABEL>
growth inhibition by drug alone

>  <QUANTITATIVE_RESULT>
-0.0203

$$$$
>  <COMPOUND>
Cc1ccc(-n2nc(C(C)(C)C)cc2NC(=O)Nc2ccc(OCCN3CCOCC3)c3ccccc23)cc1

>  <PROPERTY_LABEL>
growth inhibition by drug alone

>  <QUANTITATIVE_RESULT>
0.0293

$$$$
>  <COMPOUND>
CN(C)C/C=C/C(=O)Nc1cc2c(Nc3ccc(F)c(Cl)c3)ncnc2cc1O[C@H]1CCOC1

>  <PROPERTY_LABEL>
growth inhibition by drug alone

>  <QUANTITATIVE_RESULT>
0.0124

$$$$
>  <COMPOUND>
Nc1ccccc1NC(=O)c1ccc(CNC(=O)OCc2cccnc2)cc1

>  <PROPERTY_LABEL>
growth inhibition by drug alone

>  <QUANTITATIVE_RESULT>
0.00221

$$$$
>  <COMPOUND>
Cc1nc(N)sc1-c1ccnc(Nc2ccc(N3CCOCC3)cc2)n1

>  <PROPERTY_LABEL>
growth inhibition by drug alone

>  <QUANTITATIVE_RESULT>
-0.0373

$$$$
>  <COMPOUND>
CN1CC[C@H](c2c(O)cc(O)c3c(=O)cc(-c4ccccc4Cl)oc23)[C@H](O)C1 [Flavopiridol hydrochloride]

>  <PROPERTY_LABEL>
growth inhibition by drug alone

>  <QUANTITATIVE_RESULT>
-0.0181

$$$$
>  <COMPOUND>
C#Cc1cccc(Nc2ncnc3cc(OC)c(OCCCCCCC(=O)NO)cc23)c1

>  <PROPERTY_LABEL>
growth inhibition by drug alone

>  <QUANTITATIVE_RESULT>
-0.0216

$$$$
>  <COMPOUND>
CC(C)C[C@H](NC(=O)CNC(=O)c1cc(Cl)ccc1Cl)B1OC(=O)C(CC(=O)O)(CC(=O)O)O1

>  <PROPERTY_LABEL>
growth inhibition by drug alone

>  <QUANTITATIVE_RESULT>
0.0981

$$$$
>  <COMPOUND>
Oc1cccc(-c2nc(N3CCOCC3)c3oc4ncccc4c3n2)c1

>  <PROPERTY_LABEL>
growth inhibition by drug alone

>  <QUANTITATIVE_RESULT>
-0.0145

$$$$
>  <COMPOUND>
COc1cc2ncnc(Nc3ccc(F)c(Cl)c3)c2cc1NC(=O)/C=C/CN1CCCCC1

>  <PROPERTY_LABEL>
growth inhibition by drug alone

>  <QUANTITATIVE_RESULT>
-0.078

$$$$
>  <COMPOUND>
CC1(C)CCC(c2ccc(Cl)cc2)=C(CN2CCN(c3ccc(C(=O)NS(=O)(=O)c4ccc(N[C@H](CCN5CCOCC5)CSc5ccccc5)c(S(=O)(=O)C(F)(F)F)c4)cc3)CC2)C1

>  <PROPERTY_LABEL>
growth inhibition by drug alone

>  <QUANTITATIVE_RESULT>
-0.0135

$$$$
>  <COMPOUND>
C=CC(=O)N1CCC[C@@H](n2nc(-c3ccc(Oc4ccccc4)cc3)c3c(N)ncnc32)C1

>  <PROPERTY_LABEL>
growth inhibition by drug alone

>  <QUANTITATIVE_RESULT>
0.583

$$$$
>  <COMPOUND>
CCCCCOC(=O)Nc1nc(=O)n([C@@H]2O[C@H](C)[C@@H](O)[C@H]2O)cc1F

>  <PROPERTY_LABEL>
growth inhibition by drug alone

>  <QUANTITATIVE_RESULT>
-0.0926

$$$$
>  <COMPOUND>
COc1cc2ncnc(-n3nc(-c4ccccn4)nc3N)c2cc1OC

>  <PROPERTY_LABEL>
growth inhibition by drug alone

>  <QUANTITATIVE_RESULT>
0.0839

$$$$
>  <COMPOUND>
Nc1[nH]nc2nnc(-c3c(-c4ccccc4)nn4ccccc34)cc12

>  <PROPERTY_LABEL>
growth inhibition by drug alone

>  <QUANTITATIVE_RESULT>
0.0192

$$$$
>  <COMPOUND>
Cc1ccc(NC(=O)c2ccc(CN3CCN(C)CC3)cc2)cc1Nc1nccc(-c2cccnc2)n1

>  <PROPERTY_LABEL>
growth inhibition by drug alone

>  <QUANTITATIVE_RESULT>
0.0573

$$$$
>  <COMPOUND>
CC(=O)O[C@]1(C(C)=O)CC[C@H]2[C@@H]3C[C@H](C)C4=CC(=O)CC[C@]4(C)[C@H]3CC[C@@]21C [Medroxyprogesterone acetate]

>  <PROPERTY_LABEL>
growth inhibition by drug alone

>  <QUANTITATIVE_RESULT>
0.0166

$$$$
>  <COMPOUND>
N#Cc1ccc(COC[C@H]2O[C@@H](n3c(NCc4ccc(Cl)c(Cl)c4)nc4c(N)ncnc43)[C@H](O)[C@@H]2O)cc1

>  <PROPERTY_LABEL>
growth inhibition by drug alone

>  <QUANTITATIVE_RESULT>
-0.00792

$$$$
>  <COMPOUND>
CC(C)c1onc(-c2c(Cl)cccc2Cl)c1COc1ccc(/C=C/c2cccc(C(=O)O)c2)c(Cl)c1

>  <PROPERTY_LABEL>
growth inhibition by drug alone

>  <QUANTITATIVE_RESULT>
0.0536

$$$$
>  <COMPOUND>
CN(C)c1ccccc1CN1CCCN(Cc2ccccc2N(C)C)C1c1ccncc1

>  <PROPERTY_LABEL>
growth inhibition by drug alone

>  <QUANTITATIVE_RESULT>
-0.0775

$$$$
>  <COMPOUND>
Cc1ccc(NC(=O)c2ccc(CN3CC[C@H](N(C)C)C3)c(C(F)(F)F)c2)cc1Nc1nccc(-c2cncnc2)n1

>  <PROPERTY_LABEL>
growth inhibition by drug alone

>  <QUANTITATIVE_RESULT>
-0.0124

$$$$
>  <COMPOUND>
CC/C(=C(\c1ccccc1)c1ccc(OCCN(C)C)cc1)c1ccccc1 [Tamoxifen Citrate (Nolvadex)]

>  <PROPERTY_LABEL>
growth inhibition by drug alone

>  <QUANTITATIVE_RESULT>
-0.0313

$$$$
>  <COMPOUND>
Nc1ccc(C(=O)Nc2cccc(-c3nc(N4CCOCC4)c4oc5ncccc5c4n3)c2)cn1

>  <PROPERTY_LABEL>
growth inhibition by drug alone

>  <QUANTITATIVE_RESULT>
0.0179

$$$$
>  <COMPOUND>
CNC(=O)c1cc(COc2nnc(Nc3ccc(Cl)cc3)c3ccoc23)ccn1

>  <PROPERTY_LABEL>
growth inhibition by drug alone

>  <QUANTITATIVE_RESULT>
-0.0774

$$$$
>  <COMPOUND>
CC#C[C@]1(O)CC[C@H]2[C@@H]3CCC4=CC(=O)CCC4=C3[C@@H](c3ccc(N(C)C)cc3)C[C@@]21C

>  <PROPERTY_LABEL>
growth inhibition by drug alone

>  <QUANTITATIVE_RESULT>
-0.047

$$$$
